System: MDA-MB-231/ATCC
experiment_summary: NCI 60 cell line panel (SRB), MDA-MB-231/ATCC
Assay type: cell-based
test_parameters: Homo sapiens, Breast Cancer, single dose of 10 μM, read-out: Cell Growth Percent
Give measured activity at 10 µM for each item. Keep answers brief.
Give bare numbers, in %.

Example entries and their recorded answers appear below.
CCOC(=O)c1c(C)oc2ncnc(Nc3ccc(NC(=O)Nc4cccc(Cl)c4)cc3)c12 [Compound 15d] | 18.6
O=C(Nc1ccc(Nc2ncnc3sc4c(c23)CCCC4)cc1)Nc1cccc(Cl)c1 [Compound 20d] | 101
Cc1cccc(NC(=O)Nc2ccc(Oc3ncnc4sc5c(c34)CCCC5)cc2)c1 [Compound 21b] | 81.9
COc1cccc(NC(=O)Nc2ccc(Oc3ncnc4sc5c(c34)CCCC5)cc2)c1 [Compound 21c] | 69.6
CCOC(=O)c1c(C)oc2ncnc(Nc3ccc(C(=O)NCCc4ccccc4)cc3)c12 [Compound 14e] | 85.6
CCOC(=O)c1c(C)oc2ncnc(Nc3ccc(C(=O)Nc4cccc(Cl)c4)cc3)c12 [Compound 14a] | 95.8
COc1cccc(NC(=O)Nc2ccc(Nc3ncnc4sc5c(c34)CCCC5)cc2)c1 [Compound 20c] | 89
O=C(Nc1ccc(Cl)cc1)Nc1ccc(Oc2ncnc3sc4c(c23)CCCC4)cc1 [Compound 21d] | 70.1

# per-item lookup of activity at 10 µM; items listed below
1. CCOC(=O)c1c(C)oc2ncnc(Nc3ccc(C(=O)Nc4ccc(OC)cc4)cc3)c12 [Compound 14b]
2. CCOC(=O)c1c(C)oc2ncnc(Nc3ccc(NC(=O)Nc4ccc(CC)cc4)cc3)c12 [Compound 15i]
3. O=C(Nc1ccccc1)Nc1ccc(Oc2ncnc3sc4c(c23)CCCC4)cc1 [Compound 21a]
4. O=C(Nc1ccccc1)Nc1ccc(Nc2ncnc3sc4c(c23)CCCC4)cc1 [Compound 20a]

Output:
1: 91; 2: 94.6; 3: 66.2; 4: 91.6

---

System: SN12C
experiment_summary: NCI 60 cell line panel (SRB), SN12C
Format: cell-based
test_parameters: Homo sapiens, Renal Cancer, single dose of 10 μM, read-out: Cell Growth Percent
assay_endpoint: activity at 10 µM (%)
Numbers only, in %.

# per-item lookup of activity at 10 µM; items listed below
1. CCOC(=O)c1c(C)oc2ncnc(Nc3ccc(C(=O)Nc4ccc(OC)cc4)cc3)c12 [Compound 14b]
2. COc1cccc(NC(=O)Nc2ccc(Nc3ncnc4sc5c(c34)CCCC5)cc2)c1 [Compound 20c]
3. CCOC(=O)c1c(C)oc2ncnc(Nc3ccc(NC(=O)Nc4ccc(CC)cc4)cc3)c12 [Compound 15i]

Output:
1: 103; 2: 91; 3: 107

# per-item lookup of activity at 10 µM; items listed below
1. O=C(Nc1ccccc1)Nc1ccc(Oc2ncnc3sc4c(c23)CCCC4)cc1 [Compound 21a]
2. CCOC(=O)c1c(C)oc2ncnc(Nc3ccc(NC(=O)Nc4cccc(Cl)c4)cc3)c12 [Compound 15d]
3. O=C(Nc1ccccc1)Nc1ccc(Nc2ncnc3sc4c(c23)CCCC4)cc1 [Compound 20a]
4. CCOC(=O)c1c(C)oc2ncnc(Nc3ccc(C(=O)Nc4cccc(Cl)c4)cc3)c12 [Compound 14a]
5. O=C(Nc1ccc(Nc2ncnc3sc4c(c23)CCCC4)cc1)Nc1cccc(Cl)c1 [Compound 20d]

Output:
83.3
73.9
99.2
94.1
102
